This collection of values is drawn from patent US20190248902A1.

- System: T1, recombinant, soluble human ASGR-1 (human, UniProt P07306 62-291)
- T1 construct: biotinylated in the binning assay; also called soluble huASGR-1; Soluble ASGR-1 (Amgen)
- T1 sequence: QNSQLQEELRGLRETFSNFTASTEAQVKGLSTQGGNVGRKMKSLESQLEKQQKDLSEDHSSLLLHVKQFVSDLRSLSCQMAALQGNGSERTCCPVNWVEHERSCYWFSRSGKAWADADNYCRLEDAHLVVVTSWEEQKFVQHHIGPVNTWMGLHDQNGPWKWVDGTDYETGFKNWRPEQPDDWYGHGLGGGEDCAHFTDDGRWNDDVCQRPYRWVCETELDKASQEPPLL
- Assay: Octet BLI dissociation, pH 7.4 minus calcium
Reported values of % Change Compared to pH 7.4 + Calcium for individual entries
Supply the numeric figure in %, leaving out any unit text.

get_value(item= 10G6 (antibody, V domains shown, hybridoma mAb) VH: QVQLVQSGAEVKKPGASVKVSCKASGYTFTAYHMHWVRQAPGQGLEWMGWINPNNNGTNYAQKFQGRVTMTRDTSISTAYMELSRLRSDDTAVYYCGRDVTSSFDYWGQGTLVTVSS VL: DIQMTQSPSSVSASVGDRVTITCRASQGISKWLAWYQQKPGKAPKILIYAAYSLQSGVPARFSGSGSGTDFTLTIRSLQPEDFATYYCQQANSFPFTFGPGTKVDIK , readout=% Change Compared to pH 7.4 + Calcium) returns 7

// next item, % Change Compared to pH 7.4 + Calcium requested
get_value(item= 55B1 (antibody, V domains shown, hybridoma mAb) VH: QVQLVQSGAEVKKPGASVKVSCKASGYTFTGYYFHWVRQAPGQGLEWMGWIHPNNNATNYAQKFQGRVTMTRDTSISTAYMELSRLRSDDTAVYYCAKDGRSSFDYWGQGTLVTVSS VL: DIQMTQSPSSVSASVGDRVTITCRASQVISRWLAWYQQKPGKAPNLLIYAASSLQSGVPSRFSGSGSGTDFTLTISSLQPEDFATYYCQQANSFPFTFGPGTKVDLK , readout=% Change Compared to pH 7.4 + Calcium) returns 5
